Data provenance is paper PMC12040169.

# assay_comment: in vitro
# condition_parameters: human, hela cells, % viability
measure_name: viability at 28.5 h, 10 µM (%)
Express your answer in %, writing the number without its unit.

• O=C(NCc1ccc(Cl)c(Cl)c1)c1cnoc1-c1ccccc1Cl [CBK154942] = 98.4

IN: Provide one value: measured viability at 28.5 h, 10 µM of O=C(COc1nc2cc3c(nc2o1)CCC3)c1ccccc1 [CBK269407]
OUT: 75.5

IN: Provide one value: measured viability at 28.5 h, 10 µM of CCCN1CC2(CCN(Cc3nccn3C)CC2)CC1C(=O)O (stereo not shown) [CBK307658]
OUT: 83.2

IN: Provide one value: measured viability at 28.5 h, 10 µM of Nc1ccc2nc(CCCCCC(=O)O)sc2c1 [CBK016399]
OUT: 114

IN: Provide one value: measured viability at 28.5 h, 10 µM of Cc1ccc(-c2nnc(-c3cccc(S(=O)(=O)N4CCOCC4)c3)o2)cc1 [CBK263215]
OUT: 112

IN: Provide one value: measured viability at 28.5 h, 10 µM of C=CCN1C(=O)C2(CC(=O)N(CC)C2=O)c2cc(F)ccc21 (stereo not shown) [CBK075318]
OUT: 100

IN: Provide one value: measured viability at 28.5 h, 10 µM of CC(=O)Nc1nn(Cc2cc3c(cc2Cl)OCO3)c2ccccc12 [CBK048251]
OUT: 96.5

IN: Provide one value: measured viability at 28.5 h, 10 µM of CC(C)(C)n1ncc2c(=O)n(CC(=O)Nc3ccccc3)cnc21 [CBK287541]
OUT: 115

IN: Provide one value: measured viability at 28.5 h, 10 µM of O=C(O)c1cc(-c2ccccc2)oc1CSCCO [CBK286559]
OUT: 92.3

IN: Provide one value: measured viability at 28.5 h, 10 µM of O=S(=O)(Nc1ccc(-c2nnn[nH]2)cc1)c1c(Cl)cc(C(F)(F)F)cc1Cl [CBK155570]
OUT: 95.4

---

# assay_comment: in vitro
# condition_parameters: human, hela cells, % viability
measure_name: viability at 28.5 h, 10 µM (%)
Express your answer in %, writing the number without its unit.

These recorded examples may help you get a feel for the data.
• CS(=O)(=O)c1ccc(-c2ccc(C(=O)NCc3cccc(C(F)(F)F)c3)cn2)cc1 [CBK158874] = 91.4
• Cc1cc(C)c2nc(-c3cccnc3)cc(C(=O)N3CCN(S(=O)(=O)c4ccc(F)cc4)CC3)c2c1 [CBK267726] = 95
• O=C(NC(=S)N1CCN(CCN2C(=O)c3cccc4cccc(c34)C2=O)CC1)c1ccc2c(c1)OCO2 [CBK263577] = 82.2
• COC(=O)C1C(=O)c2cc3c(cc2C1c1cc(OC)c(OC)c(OC)c1)OCO3 (stereo not drawn) [CBK200099] = 92.5

IN: Provide one value: measured viability at 28.5 h, 10 µM of CN(C)CCN1CCN(c2nccnc2-c2cccc(CO)c2)CC1 [CBK037047]
OUT: 94.7

IN: Provide one value: measured viability at 28.5 h, 10 µM of O=C1NCCCC12CCN(Cc1cccs1)CC2 [CBK285346]
OUT: 85.2

IN: Provide one value: measured viability at 28.5 h, 10 µM of COc1ccc(C(=O)N2CCC3(CCN(Cc4cc(OC)c(OC)c(OC)c4)C3)C2)cc1OC (stereo not drawn) [CBK132149]
OUT: 100

IN: Provide one value: measured viability at 28.5 h, 10 µM of COCOc1ccc(-c2nccnc2OC2CCCCC2)cc1 [CBK106917]
OUT: 94.3

IN: Provide one value: measured viability at 28.5 h, 10 µM of CC(C)(C)c1cc(CCC(=O)NNC(=O)c2ccccc2Cl)cc(C(C)(C)C)c1O [CBK268391]
OUT: 109

---

# assay_comment: in vitro
# condition_parameters: human, hela cells, % viability
measure_name: viability at 28.5 h, 10 µM (%)
Express your answer in %, writing the number without its unit.

These recorded examples may help you get a feel for the data.
- CCn1c2ccccc2c2cc(/C=N/N3CCN(c4ccccc4OC)CC3)ccc21: 92.6
- S=c1[nH]nc(-c2ccc(Cl)cc2)n1-c1cccnc1: 83.6
- Brc1ccc(-c2nc(CSc3nnnn3C3CCCCC3)no2)cc1: 110
- CCNC(=O)Nc1ccc(-c2ccncc2)c2ccccc12: 88.8
- CCn1cc(S(=O)(=O)Nc2cccc(CCCC(=O)O)c2)cn1: 102
- COc1ccc(-c2cc(C(=O)NCc3cccnc3)c3cc(Br)ccc3n2)cc1: 86.1

IN: Provide one value: measured viability at 28.5 h, 10 µM of CCN1CCN(c2c(Cl)cccc2NC(=O)c2ccc(-c3cccc([N+](=O)[O-])c3)o2)CC1
OUT: 86.4

IN: Provide one value: measured viability at 28.5 h, 10 µM of CCN(CC)CCNC(=O)C1CCCCN1S(=O)(=O)c1ccc(C)cc1 (stereo not shown)
OUT: 89.9

IN: Provide one value: measured viability at 28.5 h, 10 µM of O=C1N[C@@]2(CC3CCC2CC3C(=O)N2CCCC2)Nc2ccccc21 (stereo partly shown)
OUT: 91.8

IN: Provide one value: measured viability at 28.5 h, 10 µM of CC(=O)Oc1cccc(CN2CCCN(S(=O)(=O)c3ccc(-c4ccccc4)cc3)CC2)c1
OUT: 94.1

IN: Provide one value: measured viability at 28.5 h, 10 µM of COCCNC(=O)N1CCN(CCc2ccccc2)CC1
OUT: 97.3

---

# assay_comment: in vitro
# condition_parameters: human, hela cells, % viability
This section presents compounds with their documented viability at 28.5 h, 10 µM values.
Express your answer in %, writing the number without its unit.

These recorded examples may help you get a feel for the data.
* CCn1c(=O)oc2cc(NC(=O)NCCN3CCCCC3CO)ccc21 (stereo not shown) | 107
* Cc1ccc(-n2sc(=O)n(CCc3ccccc3)c2=O)cc1 | 110
* Cn1c(=O)oc2cc(S(=O)(=O)NCc3ccccc3)ccc21 | 90.8

IN: Provide one value: measured viability at 28.5 h, 10 µM of CC(C(=O)N[C@H]1C2CCCCC2[C@@H]1c1ccccc1)N1CCOCC1 (stereo partly shown)
OUT: 86.4

IN: Provide one value: measured viability at 28.5 h, 10 µM of Cc1cccnc1CN(C)C(=O)c1cccc(NC(=O)C2CCCC2)c1
OUT: 82.9

IN: Provide one value: measured viability at 28.5 h, 10 µM of COc1ccc(C)cc1S(=O)(=O)n1ccc2c(CNC3CCN(C)CC3)cccc21 [CBK113308T]
OUT: 90.6

IN: Provide one value: measured viability at 28.5 h, 10 µM of CC(C)(C)c1cc(CC2(NCc3ccco3)COC2)no1
OUT: 108

IN: Provide one value: measured viability at 28.5 h, 10 µM of O=c1[nH]c(=O)c2cc(S(=O)(=O)N3CCCC(CN4CCCC4)C3)ccc2[nH]1 (stereo not shown)
OUT: 88.8

IN: Provide one value: measured viability at 28.5 h, 10 µM of O=C(CCN1CCCC12CCc1[nH]c3ccccc3c1C2)c1ccc(F)cc1 (stereo not shown)
OUT: 92.6

IN: Provide one value: measured viability at 28.5 h, 10 µM of CCCOC1CCCN(Cc2cn(CC(N)=O)c3ccccc23)C1 (stereo not shown)
OUT: 105

IN: Provide one value: measured viability at 28.5 h, 10 µM of Cc1ccc(C(=O)C(OC(=O)c2cc(O)nc3ccccc23)c2ccccc2)cc1C (stereo not shown)
OUT: 90.9

IN: Provide one value: measured viability at 28.5 h, 10 µM of N#Cc1cccc(-c2ccc3c(c2)COC(C2CCN(C(=O)OCc4ccccc4)CC2)O3)c1 (stereo not shown)
OUT: 101

IN: Provide one value: measured viability at 28.5 h, 10 µM of Cc1cccc(OCc2nc3c4c5c(sc4ncn3n2)CCCCC5)c1C
OUT: 104

IN: Provide one value: measured viability at 28.5 h, 10 µM of O=C(NNC(=O)c1cccnc1)c1ccc(NC(=O)c2ccco2)cc1
OUT: 111

IN: Provide one value: measured viability at 28.5 h, 10 µM of Cc1sc2nc(C(C)Nc3ccc4[nH]c(=O)[nH]c4c3)[nH]c(=O)c2c1C (stereo not shown)
OUT: 80.6

IN: Provide one value: measured viability at 28.5 h, 10 µM of O=c1[nH]c(=O)n([C@@H]2O[C@H](CO)[C@H](O)C2O)cc1I (stereo partly shown)
OUT: 94.6

IN: Provide one value: measured viability at 28.5 h, 10 µM of O=C(c1cccnc1NCc1ccc2c(c1)OCO2)N1CCNCC1 [CBK156112T]
OUT: 104

IN: Provide one value: measured viability at 28.5 h, 10 µM of Cn1cc(I)c(C(=O)NNC(=S)Nc2ccc(S(N)(=O)=O)cc2)n1
OUT: 106

IN: Provide one value: measured viability at 28.5 h, 10 µM of Cc1ccc(-c2noc([C@@H]3C[C@H](NC(=O)CCC(=O)O)CN3C)n2)cc1
OUT: 93.8
